Biological target: T1, recombinant human IL-2 receptor beta containing a His-tag and Avi-Tag (R&D Systems #AVI10459) (human, UniProt P14784 27-239)
T1 construct: bought protein, held on the Octet SAX2 sensor; also called CD122; IL-2Rβ
T1 sequence (looked up): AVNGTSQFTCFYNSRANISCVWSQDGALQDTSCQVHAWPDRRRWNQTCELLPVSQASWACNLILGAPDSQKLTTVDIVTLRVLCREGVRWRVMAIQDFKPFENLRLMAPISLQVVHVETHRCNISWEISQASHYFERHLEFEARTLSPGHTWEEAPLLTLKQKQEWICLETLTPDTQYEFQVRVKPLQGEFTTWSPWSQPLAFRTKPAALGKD
Assay: BLI (Octet), receptor on SAX2 sensor, MMP2-treated IL-2 as analyte
Bridges are numbered along the chain shown (N, C = ends). [ ]: non-standard residue; d: D form. Ygp = O-(8x polyethylene glycol-amino)-tyrosine; Yn3 = O-(9x polyethylene glycol-azido)-tyrosine; hSer = N[C@@H](CCO)C(=O)O; Nle = CCCC[C@H](N)C(=O)O
ENDPOINT: kon (M⁻¹ s⁻¹)
# value in M⁻¹ s⁻¹; strip the unit string

Worked examples follow.
BINDER	ENDPOINT	MEAS_VALUE
CMP-168, MMP2 cleaved (ligand, disulfide 58-105 (inferred); not fully specified (residues 9, 23); also: cleaved by MMP2, bridge opened, remnants on Lys9 and Glu23 not defined) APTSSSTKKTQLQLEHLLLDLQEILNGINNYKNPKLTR[Nle]L[hSer][Yn3]KF[Ygp][Nle]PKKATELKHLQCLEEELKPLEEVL[hSer]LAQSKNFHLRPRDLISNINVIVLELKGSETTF[hSer]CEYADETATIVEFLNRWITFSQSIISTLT	kon	789
CMP-167, MMP2 cleaved (ligand, not fully specified; as CMP-167 but cleavable peptide cut by MMP2 (macrocycle opened); cut site not given) APTSSSTKKTQLQLEHLLLDLQKILNGINNYKNPKLTRXLXYKFYXPKKATELKHLQCLEEELKPLEEVLXLAQSKNFHLRPRDLISNINVIVLELKGSETTFXCEYADETATIVEFLNRWITFSQSIISTLT	kon	345000
CMP-165, MMP2 cleaved (ligand, disulfide 58-105 (inferred); not fully specified (residue 23, N-terminus); also: MMP2 cleaved, ring opened, cut site not given here, peptide remnants on N-terminus (via glutaryl) and on Lys23 side chain) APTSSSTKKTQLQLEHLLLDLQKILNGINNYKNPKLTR[Nle]L[hSer][Yn3]KF[Ygp][Nle]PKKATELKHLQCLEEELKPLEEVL[hSer]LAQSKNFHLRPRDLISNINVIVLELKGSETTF[hSer]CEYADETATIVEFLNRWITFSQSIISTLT	kon	213000

Next:
// kon lookup, key: CMP-166, MMP2 cleaved (ligand, not fully specified; as CMP-166 but cleavable peptide cut by MMP2 (macrocycle opened); cut site not given) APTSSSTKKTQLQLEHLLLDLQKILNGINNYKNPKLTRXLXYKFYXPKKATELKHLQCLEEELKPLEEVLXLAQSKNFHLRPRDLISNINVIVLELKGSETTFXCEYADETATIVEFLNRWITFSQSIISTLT
283000
